B1: Tyrosine-protein kinase Lck, residues 63 to 120; numbered along this chain, P06239 (parent)
chain: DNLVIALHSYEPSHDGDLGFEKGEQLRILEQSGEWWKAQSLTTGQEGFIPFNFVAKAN

# Variants of: B1
# Assay protocol: abundance fitness (aPCA) (normalised: wild type 0, dead -1); higher = more abundant; growth selection in yeast, the domain comes from the species named
# Test context: Homo sapiens
Returns one of 1.0 or 0.0; 1.0 when abundance fitness is >= -0.2.

The following variants have reported results that may help.
1. S32E	1.0
2. A57Y	1.0

Could you verify whether the entry `S40H` shows abundance fitness of no less than -0.2? 1.0

Could you verify whether the entry `W35H` shows abundance fitness of no less than -0.2? 1.0

Could you verify whether the entry `E11R` shows abundance fitness of no less than -0.2? 1.0

Could you verify whether the entry `L29H` shows abundance fitness of no less than -0.2? 1.0

Could you verify whether the entry `G23I` shows abundance fitness of no less than -0.2? 0.0
